Ref: patent US11707539B2

ASSAY_SYSTEM: recombinant human fibroblast activation protein (FAP) (Homo sapiens (Human))
Sequence (Q12884 whole entry): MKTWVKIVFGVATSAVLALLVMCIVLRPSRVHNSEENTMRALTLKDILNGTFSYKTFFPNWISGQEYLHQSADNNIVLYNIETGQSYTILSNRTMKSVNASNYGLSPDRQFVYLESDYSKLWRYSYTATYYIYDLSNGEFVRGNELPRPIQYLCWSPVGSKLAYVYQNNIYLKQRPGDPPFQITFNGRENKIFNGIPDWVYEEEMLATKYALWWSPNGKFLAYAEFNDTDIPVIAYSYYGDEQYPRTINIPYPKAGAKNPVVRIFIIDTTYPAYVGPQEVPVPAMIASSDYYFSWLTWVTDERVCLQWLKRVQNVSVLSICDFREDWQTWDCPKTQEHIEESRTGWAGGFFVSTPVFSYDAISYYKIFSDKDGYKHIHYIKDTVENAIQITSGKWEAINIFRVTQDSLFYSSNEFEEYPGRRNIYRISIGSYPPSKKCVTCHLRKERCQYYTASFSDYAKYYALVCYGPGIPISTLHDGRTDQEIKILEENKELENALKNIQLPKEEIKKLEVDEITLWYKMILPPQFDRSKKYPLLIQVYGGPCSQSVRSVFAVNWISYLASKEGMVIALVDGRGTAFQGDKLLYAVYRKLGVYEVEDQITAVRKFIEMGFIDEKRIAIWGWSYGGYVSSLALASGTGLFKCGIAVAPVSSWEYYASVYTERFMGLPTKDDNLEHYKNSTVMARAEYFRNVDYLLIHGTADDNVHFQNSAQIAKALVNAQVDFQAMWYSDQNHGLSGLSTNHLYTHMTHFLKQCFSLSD
EXPERIMENTAL_DETAILS: In vitro IC50 assay, fibroblast activation protein (Example 15)
Format: biochemical
EXPERIMENTAL_CONTEXT: Z-Gly-Pro-AMC, room temperature; read-out: FAP IC50
Where a SMILES comes first, the peptide text is derived from it.
MEASUREMENT_TYPE: IC50 (nM)
The response must be a number in nM with no trailing unit.

The examples below pair each entry with its known result.
COMPOUND	ASSAY_SYSTEM	UNITS_SYMBOL	IC50
C[C@H](NC(=O)CN1CCN2CCN3CCN(CC1)CC(=O)[O][Gd]([O]C(=O)C2)[O]C(=O)C3)C(=O)N[C@H](C)C(=O)N1CCC[C@H]1B(O)O [Compound 6511Gd, DOTA[(Gd(III)]-Ala-D-Ala-boroPro]	recombinant human fibroblast activation protein (FAP) (Homo sapiens (Human))	nM	428
CC(C)[C@H](NC(=O)CN1CCN2CCN(CC(=O)O)CCN(CC1)CC(=O)[O][Cu][O]C(=O)C2)C(=O)N[C@H](C)C(=O)N1CCC[C@H]1B(O)O (stereo in doubt) [Compound 6508CU, DOTA[(Cu(II)]-Val-D-Ala-boroPro]	recombinant human fibroblast activation protein (FAP) (Homo sapiens (Human))	nM	26.2
C[C@@H](NC(=O)c1ccc(NNC(=O)CCCNC(=O)CN2CCN3CCN4CCN(CC2)CC(=O)[O][Lu]([O]C(=O)C3)[O]C(=O)C4)nc1)C(=O)N1CCC[C@H]1B(O)O [Compound 6609LU]	recombinant human fibroblast activation protein (FAP) (Homo sapiens (Human))	nM	1

Problem: What does the data say about its IC50? Entry: CC(C)[C@H](NC(=O)CNC(=O)CNC(=O)CNC(=O)CNC(=O)CN1CCN(CC(=O)O)CCN(CC(=O)O)CCN(CC(=O)O)CC1)C(=O)N[C@H](C)C(=O)N1CCC[C@H]1B(O)O [Compound 6839, DOTA-(Gly)4-Val-D-ala-boroPro] (HELM PEPTIDE1{[O=C(O)CN1CCN(CC(=O)O)CCN(CC(=O)[*:2])CCN(CC(=O)O)CC1].G.G.G.G.V.[dA].[OB(O)[C@@H]1CCCN1[*:1]]}$$$$V2.0)
Solution: 21

Problem: Item: C[C@@H](NC(=O)[C@H](CO)NC(=O)CN1CCN(CC(=O)O)CCN(CC(=O)O)CCN(CC(=O)O)CC1)C(=O)N1CCC[C@H]1B(O)O [Compound 6509, DOTA-Ser-D-Ala-boroPro]
Solution: 186

Problem: Would you mind doing CC(C)[C@H](NC(=O)CNC(=O)CNC(=O)CN1CCN2CCN3CCN(CC1)CC(=O)[O][Ga]([O]C(=O)C2)[O]C(=O)C3)C(=O)N[C@H](C)C(=O)N1CCC[C@H]1B(O)O [Compound 6522GA-02, DOTA(Ga)-Gly-Gly-Val-D-alaboroPro] (HELM PEPTIDE1{[O=C1CN2CCN3CCN(CC(=O)[*:2])CCN(CC2)CC(=O)[O][Ga]([O]1)[O]C(=O)C3].G.G.V.[dA].[OB(O)[C@@H]1CCCN1[*:1]]}$$$$V2.0) as well?
Solution: 575

Problem: What do you have for C[C@@H](NC(=O)c1ccc(NNC(=O)CCCNC(=O)CN2CCN3CCN4CCN(CC2)CC(=O)[O][Ga]([O]C(=O)C3)[O]C(=O)C4)cc1)C(=O)N1CCC[C@H]1B(O)O [Compound 6489GA] ?
Solution: 39
